These measurements were taken from ChEMBL document CHEMBL4610120.

Documented selectivity ratio across a set of molecules
- Experiment: Selectivity ratio of cytotoxicity against human WI38 cells to MIC for vancomycin resistant Enterococcus faecium NCTC 12204
- Type: toxicity, cell-based
Quantity Measured: selectivity ratio

- Test Smiles: "COc1cc2c(cc1OCCCC(=O)Nc1cc(C(=O)Nc3ccc(-c4cc(C(=O)N5CCCCC5)n(C)c4)cc3)n(C)c1)N=C[C@@H]1CCCN1C2=O"
  Obs Value: 100
- Test Smiles: "CCN(CC)C(=O)c1cc2cc(NC(=O)c3cc(NC(=O)CCCOc4cc5c(cc4OC)C(=O)N4CCC[C@H]4C=N5)cn3C)ccc2s1"
  Obs Value: 100
- Test Smiles: "COc1cc2c(cc1OCCCC(=O)Nc1cc(C(=O)Nc3ccc4oc(C(=O)N5CCCCC5)cc4c3)n(C)c1)N=C[C@@H]1CCCN1C2=O"
  Obs Value: 100
- Test Smiles: "COc1cc2c(cc1OCCCC(=O)Nc1cc(C(=O)Nc3ccc(-c4cc(C(=O)N5CCOCC5)n(C)c4)cc3)n(C)c1)N=C[C@@H]1CCCN1C2=O"
  Obs Value: 100
- Test Smiles: "COc1cc2c(cc1OCCCC(=O)Nc1cc(C(=O)Nc3ccc4oc(C(=O)N5CCOCC5)cc4c3)n(C)c1)N=C[C@@H]1CCCN1C2=O"
  Obs Value: 100
- Test Smiles: "COc1cc2c(cc1OCCCC(=O)Nc1cc(C(=O)Nc3ccc4sc(C(=O)N5CCOCC5)cc4c3)n(C)c1)N=C[C@@H]1CCCN1C2=O"
  Obs Value: 100
- Test Smiles: "COc1cc2c(cc1OCCCC(=O)Nc1cc(C(=O)Nc3ccc4sc(C(=O)N(C)C)cc4c3)n(C)c1)N=C[C@@H]1CCCN1C2=O"
  Obs Value: 100
- Test Smiles: "COc1cc2c(cc1OCCCC(=O)Nc1cc(C(=O)Nc3ccc(-c4cc(C(=O)N5CCSCC5)n(C)c4)cc3)n(C)c1)N=C[C@@H]1CCCN1C2=O"
  Obs Value: 100
- Test Smiles: "COc1cc2c(cc1OCCCC(=O)Nc1cc(C(=O)Nc3ccc4sc(C(=O)N5CCSCC5)cc4c3)n(C)c1)N=C[C@@H]1CCCN1C2=O"
  Obs Value: 100
- Test Smiles: "CCN(CC)C(=O)c1cc2cc(NC(=O)c3cc(NC(=O)CCCOc4cc5c(cc4OC)C(=O)N4CCC[C@H]4C=N5)cn3C)ccc2o1"
  Obs Value: 100
- Test Smiles: "CCN(CC)C(=O)c1cc(-c2ccc(NC(=O)c3cc(NC(=O)CCCOc4cc5c(cc4OC)C(=O)N4CCC[C@H]4C=N5)cn3C)cc2)cn1C"
  Obs Value: 100
- Test Smiles: "COc1cc2c(cc1OCCCC(=O)Nc1cc(C(=O)Nc3ccc4sc(C(=O)N5CCCCC5)cc4c3)n(C)c1)N=C[C@@H]1CCCN1C2=O"
  Obs Value: 100
- Test Smiles: "COc1cc2c(cc1OCCCC(=O)Nc1cc(C(=O)Nc3ccc4oc(C(=O)N5CCSCC5)cc4c3)n(C)c1)N=C[C@@H]1CCCN1C2=O"
  Obs Value: 100
- Test Smiles: "COc1cc2c(cc1OCCCC(=O)Nc1cc(C(=O)Nc3ccc(-c4cc(C(=O)N(C)C)n(C)c4)cc3)n(C)c1)N=C[C@@H]1CCCN1C2=O"
  Obs Value: 100
- Test Smiles: "COc1cc2c(cc1OCCCC(=O)Nc1cc(C(=O)Nc3ccc4oc(C(=O)N(C)C)cc4c3)n(C)c1)N=C[C@@H]1CCCN1C2=O"
  Obs Value: 100
